Origin of values: PubChem BioAssay (NCATS)

Test: Quantitative High-Throughput drug screen in 47 multiple myeloma cell lines against the NCATS MIPE library collection: RPMI8226_ATCC cell viability assay (AID 1919871); also: nearly all actives have a fitted effect of over 30% in size
Settings: RPMI8226 myeloma viability, CellTiter-Glo ATP luminescence, 48 h; series mostly up to 45.8 µM
Inconclusive results are not listed. Active and inactive are the calls of the source. Calls follow the shape of the dose curve; as a rule, active = well fitted cell-killing curve with a large enough effect; inconclusive = small, poorly fitted or top-dose-only effect, or effect the other way; inactive = no such curve, though single readings can be large or run the other way.
Classes used: active, inactive

compound	qualitative label
CC(=O)Nc1ccc([C@H](C)C(=O)Nc2ncc(C(C)C)s2)cc1	active
O=C(O)c1ccccc1C(=O)Nc1ccc(-c2ccccc2)cc1	inactive
CC(C)(C)c1cc(C(=O)O)c(NC(=O)Nc2ccc3[nH]ncc3c2)s1	inactive
Cc1c(NC(=O)c2ccc(C(C)(C)C)cc2)cccc1-c1cn(C)c(=O)c(Nc2ccc(C(=O)N3CCOCC3)cc2)n1	active
CO[C@H]1C=CC=C(C)C(=O)NC2=CC(=O)C(NCCN(C)C)=C(C[C@@H](C)C[C@H](OC)[C@@H](O)[C@@H](C)C=C(C)[C@@H]1OC(N)=O)C2=O	active
Clc1ccc(-c2nc3sccn3c2C=NOCc2ccc(Cl)c(Cl)c2)cc1	inactive
CNC(=O)c1ccc2cc(C3(O)CCn4cncc43)ccc2c1 (centres undefined)	inactive
Cn1cc(C=C2C(=O)Nc3cccnc32)c2ccccc21	inactive
CC(C)(C)OC(=O)N[C@H]1CCCCCC=C[C@@H]2C[C@@]2(C(=O)NS(=O)(=O)C2CC2)NC(=O)[C@@H]2C[C@@H](OC(=O)N3Cc4cccc(F)c4C3)CN2C1=O	inactive
